System tested: T1, hIL-4Rα on cells (human, UniProt P24394 26-825)
T1 sequence: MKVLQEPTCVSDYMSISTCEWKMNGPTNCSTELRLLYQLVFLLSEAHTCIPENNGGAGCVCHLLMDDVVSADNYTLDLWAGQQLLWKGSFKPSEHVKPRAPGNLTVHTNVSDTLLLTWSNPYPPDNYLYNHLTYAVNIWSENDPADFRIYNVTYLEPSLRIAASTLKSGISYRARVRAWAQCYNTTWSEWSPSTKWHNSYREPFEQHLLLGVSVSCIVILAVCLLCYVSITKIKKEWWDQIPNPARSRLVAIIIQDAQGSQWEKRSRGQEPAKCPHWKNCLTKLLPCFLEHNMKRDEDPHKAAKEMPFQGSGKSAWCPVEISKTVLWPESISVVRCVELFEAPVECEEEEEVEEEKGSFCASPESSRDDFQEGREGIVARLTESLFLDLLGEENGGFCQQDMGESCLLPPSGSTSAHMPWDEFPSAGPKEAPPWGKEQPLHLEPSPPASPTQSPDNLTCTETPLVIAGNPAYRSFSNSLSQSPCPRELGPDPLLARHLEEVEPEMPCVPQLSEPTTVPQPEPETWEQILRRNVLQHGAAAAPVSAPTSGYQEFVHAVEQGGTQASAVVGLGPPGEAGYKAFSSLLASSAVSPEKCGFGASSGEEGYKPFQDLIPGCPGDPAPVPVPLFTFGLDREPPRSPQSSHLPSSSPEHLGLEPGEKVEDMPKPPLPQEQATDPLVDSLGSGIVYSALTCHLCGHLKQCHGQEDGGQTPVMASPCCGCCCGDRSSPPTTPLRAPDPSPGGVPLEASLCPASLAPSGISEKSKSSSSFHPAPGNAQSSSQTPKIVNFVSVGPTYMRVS
Measurement description: FACS on HEK293 cells, competitor biotin-hIL-13;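 note: stably transduced cells co-expressing both receptor chains, stained cold, with cell-bound signal read as mean fluorescence intensity by flow cytometry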
Quick reference: Relative Blockade of IL-13 Binding IC50 of the listed items.

>  <Binder>
Construct 31 (mAb443) (antibody, IgG4, V domains shown, VH/VL only) VH: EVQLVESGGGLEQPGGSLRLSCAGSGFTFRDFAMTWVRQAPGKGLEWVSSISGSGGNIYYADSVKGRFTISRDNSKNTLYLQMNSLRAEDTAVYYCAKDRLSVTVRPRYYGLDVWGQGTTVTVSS VL: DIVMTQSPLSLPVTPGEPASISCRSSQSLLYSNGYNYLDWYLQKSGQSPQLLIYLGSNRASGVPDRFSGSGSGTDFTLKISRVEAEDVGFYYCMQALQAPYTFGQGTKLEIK

>  <Relative Blockade of IL-13 Binding IC50>
0.964 relative to dupilumab

$$$$

Continue with the next binder.
// lookup Relative Blockade of IL-13 Binding IC50 for Construct 11 (mAb420) (antibody, IgG4, V domains shown, VH/VL only) VH: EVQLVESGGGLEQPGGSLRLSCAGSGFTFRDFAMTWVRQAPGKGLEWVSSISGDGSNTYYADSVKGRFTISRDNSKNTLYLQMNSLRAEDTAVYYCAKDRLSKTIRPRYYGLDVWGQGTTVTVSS VL: DIVMTQSPLSLPVTPGEPASISCRSSQSVLYSIGYNYVDWYLQKSGQSPQLLIYLGNKRASGVPDRFSGSGSGTDFTLKISRVEAEDVGFYYCMQSLQTPYTFGQGTKLEIK 0.928 relative to dupilumab
